- System: Hela, human cervical carcinoma
- test-description: preliminary anti-tumor screening in vitro, MTT method
- Assay type: cell-based
- measurement-conditions: 10 μM, read-out: inhibition rates (%) Hela
Binary classification by inhibition at 10 µM, with 30% as an inclusive lower bound for Fulfilled; all other cases are Not fulfilled.

Does inhibition at 10 µM meet or surpass 30% for CC(C)C[C@H](NC(=O)N[C@H](Cc1ccccc1)C(=O)Nc1cnccn1)B(O)O [Example 10] ?
Not fulfilled

Does inhibition at 10 µM meet or surpass 30% for CC(C)C[C@H](NC(=O)N[C@@H](Cc1ccccc1)C(=O)Nc1cnccn1)B(O)O [Example 6] ?
Not fulfilled

Does inhibition at 10 µM meet or surpass 30% for CC(C)C[C@H](NC(=O)[C@H](Cc1ccccc1)NC(=O)N[C@@H](Cc1ccccc1)C(=O)Nc1cnccn1)B(O)O [Example 24] ?
Fulfilled

Does inhibition at 10 µM meet or surpass 30% for CC(C)C[C@H](NC(=O)[C@H](Cc1ccccc1)NC(=O)NCc1cccc(Cl)c1Cl)B(O)O [Example 20] ?
Fulfilled

Does inhibition at 10 µM meet or surpass 30% for COc1ccc(OC)c(CNC(=O)N[C@@H](Cc2ccccc2)C(=O)N[C@@H](CC(C)C)B(O)O)c1 [Example 18] ?
Fulfilled

Does inhibition at 10 µM meet or surpass 30% for COc1ccc(CNC(=O)N[C@@H](Cc2ccccc2)C(=O)N[C@@H](CC(C)C)B(O)O)cc1 [Example 15] ?
Fulfilled

Does inhibition at 10 µM meet or surpass 30% for CC(C)C[C@H](NC(=O)[C@H](Cc1ccccc1)NC(=O)Nc1cnccn1)B(O)O [Example 17] ?
Fulfilled

Does inhibition at 10 µM meet or surpass 30% for CC(C)C[C@H](NC(=O)N[C@@H](CC(C)C)C(=O)N[C@@H](CC(C)C)C(=O)Nc1cnccn1)B(O)O [Example 11] ?
Not fulfilled

----------
- measured-on: 20S proteasome extracted from rat liver (T-L) (Rattus norvegicus, UniProt P40112+Q9JHW0)
- Construct: 20S proteasome extracted from rat liver; from tissue; host or cells: rat liver
- test-description: inhibition of 20S proteasome, T-L activity (fluorescent peptide)
- Assay type: biochemical
- measurement-conditions: rat liver 20S proteasome; read-out: IC50 (μM) T-L
- Procedure: 1 μg of 20S proteasome extracted from rat liver was incubated with a 100 μL solution containing various concentrations of the present compounds, 50 μM fluorescent peptides and 20 mM Tris-HCl at 37° C. for 1 h, respectively. […] 0.1% DMSO was used as a solvent control. Compared with the fluorescence of solvent control, an inhibition rate or IC50 value was calculated.
Exercise: state measured IC50 for each of the molecules provided.
State just the number; it will be interpreted in µM.

What value of measured IC50 is listed for CC(C)C[C@H](NC(=O)[C@H](Cc1ccccc1)NC(=O)NCc1ccc(-c2ccccc2)cc1)B(O)O ?
1.15

What value of measured IC50 is listed for CC(C)C[C@H](NC(=O)[C@H](Cc1ccccc1)NC(=O)NCc1cccc2ccccc12)B(O)O ?
0.15

----------
- measured-on: 20S proteasome extracted from rat liver (T-L) (Rattus norvegicus, UniProt P40112+Q9JHW0)
- Construct: 20S proteasome extracted from rat liver; from tissue; host or cells: rat liver
- test-description: inhibition of 20S proteasome, T-L activity (fluorescent peptide)
- Type: biochemical
- measurement-conditions: 20 μM; rat liver 20S proteasome, 37° C., 1 h; read-out: inhibition rates (%) T-L
- Procedure: 1 μg of 20S proteasome extracted from rat liver was incubated with a 100 μL solution containing various concentrations of the present compounds, 50 μM fluorescent peptides and 20 mM Tris-HCl at 37° C. for 1 h, respectively. […] 0.1% DMSO was used as a solvent control. Compared with the fluorescence of solvent control, an inhibition rate or IC50 value was calculated.
Exercise: state measured inhibition at 20 µM for each of the molecules provided.
Remember to follow the number with its unit.

What value of measured inhibition at 20 µM is listed for CC(C)C[C@H](NC(=O)N[C@@H](Cc1ccccc1)C(=O)Nc1cnccn1)B1OC2C[C@H]3C[C@H](C3(C)C)[C@@]2(C)O1 (some centres unmarked) [Example 7] ?
25.3%

What value of measured inhibition at 20 µM is listed for CC(C)C[C@H](NC(=O)N[C@@H](Cc1ccccc1)C(=O)Nc1cccc(OCc2ccccc2)c1)B1OC2C[C@H]3C[C@H](C3(C)C)[C@@]2(C)O1 (some centres unmarked) [Example 5] ?
0.968%

What value of measured inhibition at 20 µM is listed for CC(C)C[C@H](NC(=O)CNC(=O)Nc1cccc(OCc2ccccc2)c1)B(O)O [Example 21] ?
62%

What value of measured inhibition at 20 µM is listed for COc1ccc(CNC(=O)N[C@@H](Cc2ccccc2)C(=O)N[C@@H](CC(C)C)B(O)O)cc1 [Example 15] ?
90.4%

What value of measured inhibition at 20 µM is listed for COc1ccc(CNC(=O)[C@H](Cc2ccccc2)NC(=O)N[C@@H](CC(C)C)B(O)O)cc1 [Example 1] ?
35.5%

What value of measured inhibition at 20 µM is listed for CC(C)C[C@H](NC(=O)[C@H](Cc1ccccc1)NC(=O)Nc1cccc(OCc2ccccc2)c1)B(O)O [Example 16] ?
62.2%

What value of measured inhibition at 20 µM is listed for CC(C)C[C@H](NC(=O)N[C@@H](Cc1ccccc1)C(=O)N[C@@H](CC(C)C)C(=O)Nc1cnccn1)B1OC(C)(C)C(C)(C)O1 [Example 13] ?
49.4%

What value of measured inhibition at 20 µM is listed for CC(C)C[C@H](NC(=O)N[C@H](Cc1ccccc1)C(=O)Nc1cnccn1)B(O)O [Example 10] ?
17.4%

What value of measured inhibition at 20 µM is listed for CC(C)C[C@H](NC(=O)N[C@@H](Cc1ccccc1)C(=O)NCC1CCCO1)B(O)O (some centres unmarked) [Example 3] ?
35.9%

What value of measured inhibition at 20 µM is listed for CC(C)C[C@H](NC(=O)N[C@@H](Cc1ccccc1)C(=O)N[C@@H](CC(C)C)C(=O)Nc1cnccn1)B(O)O [Example 12] ?
67.8%

What value of measured inhibition at 20 µM is listed for COc1ccc(NC(=O)[C@H](Cc2ccccc2)NC(=O)N[C@@H](CC(C)C)B(O)O)cc1 [Example 8] ?
30.6%

What value of measured inhibition at 20 µM is listed for CC(C)C[C@H](NC(=O)[C@H](Cc1ccccc1)NC(=O)Nc1cnccn1)B(O)O [Example 17] ?
57.3%

What value of measured inhibition at 20 µM is listed for CC(C)C[C@H](NC(=O)[C@H](Cc1ccccc1)NC(=O)N[C@@H](Cc1ccccc1)C(=O)Nc1cnccn1)B(O)O [Example 24] ?
90.2%

What value of measured inhibition at 20 µM is listed for CC(C)C[C@H](NC(=O)[C@H](Cc1ccccc1)NC(=O)[C@H](Cc1ccccc1)NC(=O)Nc1cccc(OCc2ccccc2)c1)B(O)O [Example 23] ?
90.5%
